- Tested on: P. falciparum stage V gametocytes
- Set-up: BacTiter-Glo ATP luminescence viability of purified stage V gametocytes in 384-well plates, per cent inhibition versus DMSO
- condition: 48 h, 5 µM; inhibitor
Screen size: about 13,000 compounds; about 3,200 (25%) showed an effect of 50% or more. The list shows a part of the results.
Would you mind telling me the reported % Inhibition of each entry?
// note: answer is a bare numeric in %

Entry under review: Cc1ccc(CNC(=O)[C@H](CCCN)Nc2cc(C)nc(NCC3CCCCC3)n2)cc1 [TCMDC-134923] . Reported % Inhibition?
95.63

Would you kindly repeat that for O=C(CCc1cnc[nH]1)Nc1ccc(-c2ccc(-c3nc4ccccc4[nH]3)cc2)cc1 [TCMDC-132156] ?
-24.85

Now consider Cc1ccc(CNC(=O)[C@H](CC(C)C)Nc2cc(C)nc(Nc3ccccc3)n2)cc1 [TCMDC-134740] and answer again.
5.216

Check Cc1ccc(CNC(=O)[C@H](Cc2ccccc2)Nc2cc(C)nc(Nc3ccccc3)n2)cc1 [TCMDC-134858] too.
7.065

Further, for Cc1ccc(CNC(=O)[C@H](CC(C)C)Nc2cc(C)nc(NCC3CCCCC3)n2)cc1 [TCMDC-134918] ?
-23.99

Follow-up item: Cc1cnc(NCC2CCCCC2)nc1N[C@@H](CO)C(=O)Nc1ccccc1 [TCMDC-134859]
-15.9

Ok, now CCN1CCN(Cc2ccc3nc(-c4cc(C)n(Cc5cc(Cl)ccc5OCc5ccccc5)n4)[nH]c3c2)CC1 [TCMDC-136884]
23.91

Same for Cc1ccc(CNC(=O)[C@H](Cc2ccccc2)Nc2ccnc(NCC3CCCCC3)n2)cc1 [TCMDC-134709]
-30.11
